Molecular target: IDH1 (R132H) mutant (Homo sapiens, UniProt O75874, R132H)
Construct: His6 with PreScission site (N, cleaved yes)
Experiment: Fluorescence biochemical assay (NADPH oxidation)
Settings: mIDH R132H 10 nM, 10 μM NADPH, 100 μM α-KG; range where run multiple times
Protocol: The IDH1 (R132H) mutant catalyzes the reduced form of NADP+ (NADPH) and α-ketoglutarate (α-KG) to form nicotinamide adenine dinucleotide phosphate (NADP+) and R(−)-2-hydroxyglutarate (2HG). […] Reactions were monitored using the Perkin-Elmer Envision, Model 2101. […] The final reaction mixture contained 2.5% DMSO and test compounds with concentrations ranging 0.0000008-25 μM. The IDH1 (R132H) enzyme was used at a final concentration of 10 nM. […]
pIC50: −log10 of the molar value.
Reported pIC50 values for the following compounds.

COMPOUND | pIC50
CC(Nc1nccc(N2C(=O)OC[C@@]2(C)C2CC2)n1)c1nc(-c2ccc(Cl)c(OC(F)(F)F)c2)no1 (single isomer, unassigned) [Example 65] | < 4.60
C[C@H](Nc1nccc(N2C(=O)OCC2(C)C2CC2)n1)c1ccc(F)cc1 (single isomer, unassigned) [Example 45] | 6.60 to 6.63
CC(Nc1nccc(N2C(=O)OC[C@]2(C)C2CC2)n1)c1nc(-c2ccc(Cl)c(OC(F)(F)F)c2)no1 (single isomer, unassigned) [Example 63] | 5.67 to 5.72

###

target: Mutant IDH1 R132H (Homo sapiens, UniProt O75874, R132H); construct: His6 with PreScission site (N, cleaved yes); test: Mutant IDH1 biochemical assay: LC-MS detection of 2-HG; conditions: mIDH R132H […], 5 uM NADPH, 100 uM alpha-KG, 45 minutes incubation; range where run multiple times; also: mIDH R132H 0.25 nM, 5 µM NADPH
Sequence (O75874 whole entry R132H): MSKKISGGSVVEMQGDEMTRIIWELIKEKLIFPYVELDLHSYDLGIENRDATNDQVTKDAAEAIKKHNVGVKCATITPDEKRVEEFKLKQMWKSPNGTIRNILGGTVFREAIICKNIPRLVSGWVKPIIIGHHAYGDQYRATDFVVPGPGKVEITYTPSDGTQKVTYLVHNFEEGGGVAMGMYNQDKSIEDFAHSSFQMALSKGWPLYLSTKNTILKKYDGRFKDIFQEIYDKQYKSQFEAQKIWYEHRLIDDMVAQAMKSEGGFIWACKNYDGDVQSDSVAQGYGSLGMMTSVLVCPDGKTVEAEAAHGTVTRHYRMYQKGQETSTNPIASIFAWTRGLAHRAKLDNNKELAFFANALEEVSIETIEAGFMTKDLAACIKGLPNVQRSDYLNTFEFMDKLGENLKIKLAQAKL
IC50 values by entry

COMPOUND | IC50
Cc1cc(-c2cnc(C(C)Nc3nccc(N4C(=O)OC[C@]4(C)C4CC4)n3)nc2)ccc1F (single isomer, unassigned) [Example 54] | > 5000 nM
C[C@H](Nc1nccc(N2C(=O)OC[C@]2(C)C2CC2)n1)c1ccc(CN2CCC(N(C)C)CC2)c(F)c1 | 211 to 271 nM
C[C@H](Nc1nc(Cl)cc(N2C(=O)OC[C@@H]2C2CC2)n1)c1nc(-c2ccc(Cl)cc2)no1 | < 22.9 nM
CC(Nc1nccc(N2C(=O)OC[C@@]2(C)C2CC2)n1)c1nc(-c2ccc(Cl)c(OC(F)(F)F)c2)no1 (single isomer, unassigned) [Example 65] | > 5000 nM
CC(Nc1nccc(N2C(=O)OC[C@@]2(C)C2CC2)n1)c1nc(-c2ccc(Cl)cc2)no1 (single isomer, unassigned) [Example 52] | 32.6 to 54 nM

###

biological target: IDH1 (R132H) mutant (Homo sapiens, UniProt O75874, R132H); construct: His6 with PreScission site (N, cleaved yes); assay: Fluorescence biochemical assay (NADPH oxidation); conditions: mIDH R132H 10 nM, 10 μM NADPH, 100 μM α-KG; range where run multiple times

COMPOUND | ASSAYED TARGET | IC50 [nM]
Cc1cc(N2C(=O)OC[C@@H]2C2CC2)nc(N[C@@H](C)c2nc(-c3ccc(Cl)cc3)no2)n1 | IDH1 (R132H) mutant (Homo sapiens, UniProt O75874, R132H) | 71.3
Cc1cc(N2C(=O)OC[C@@H]2C2CC2)nc(N[C@@H](C)c2cc(-c3ccc(Cl)cc3)on2)n1 | IDH1 (R132H) mutant (Homo sapiens, UniProt O75874, R132H) | 71.6
CC(Nc1nccc(N2C(=O)OC[C@]2(C)C2CC2)n1)c1nc(-c2ccc(Cl)cc2)no1 (single isomer, unassigned) | IDH1 (R132H) mutant (Homo sapiens, UniProt O75874, R132H) | 62.9
C[C@H](Nc1nccc(N2C(=O)OC[C@@H]2C2CC2)n1)c1nc(-c2ccc(Cl)cc2)no1 | IDH1 (R132H) mutant (Homo sapiens, UniProt O75874, R132H) | 62.7
